These measurements were taken from patent US20220025021A1.

# system_tested: HIV-1 Env of pseudovirus 0260.v5.c36 (HIV-1)
# experimental_protocol: cell-based or functional assay
The binders listed here are annotated with their neutralization IC50.
Unit µg/mL implied. Number only.

{"binder": "MS-72 (antibody, V domains shown) VH: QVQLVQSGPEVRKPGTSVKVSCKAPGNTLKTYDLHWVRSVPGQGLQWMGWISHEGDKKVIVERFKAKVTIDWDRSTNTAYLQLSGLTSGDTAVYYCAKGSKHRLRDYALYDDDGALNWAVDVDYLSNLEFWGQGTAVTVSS VL: DFVLTQSPHSLSVTPGESASISCKSSHSLIHGDRNNYLAWYVQKPGRSPQLLIYLASSRASGVPDRFSGSGSDTDFTLKISRVETEDVGTYYCMQGRESPWTFGQGTKVDIKR", "units": "µg/mL", "neutralization IC50": 0.023}
{"binder": "MS-74 (antibody, V domains shown) VH: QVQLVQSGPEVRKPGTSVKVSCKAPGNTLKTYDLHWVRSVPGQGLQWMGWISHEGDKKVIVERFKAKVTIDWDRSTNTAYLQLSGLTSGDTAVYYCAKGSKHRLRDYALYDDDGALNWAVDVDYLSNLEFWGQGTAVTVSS VL: DFVLTQSPHSLSVTPGESASISCKSSHSLIHGDRNNYLAWYVQKPGRSPQLLIYLASSRASGVPDRFSGSGSDKDFTLKISRVETEDVGVYYCMQGRESPWTFGQGTKVDIKR", "units": "µg/mL", "neutralization IC50": 0.017}

We next turn to a different binder, shown below.
In: Please give the measured neutralization IC50 for this binder: MS-80 (antibody, V domains shown) VH: QVQLVQSGPEVRKPGTSVKVSCKAPGNTLKTYDLHWVRSVPGQGLQWMGWISHEGDKKVIVERFKAKVTIDRDRSTNTAYLQLSGLTSGDTAVYYCAKGSKHRLRDYALYDDDGALNWAVDVDYLSNLEFWGQGTAVTVSS VL: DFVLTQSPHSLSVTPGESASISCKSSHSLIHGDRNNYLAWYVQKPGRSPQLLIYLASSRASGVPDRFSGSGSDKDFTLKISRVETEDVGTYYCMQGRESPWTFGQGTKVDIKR
Out: 0.041
